MEASURED ON: full-length beta-Catenin (Uniprot ID P35222) (Homo sapiens, UniProt P35222)
Construct: 10 nM full-length beta-Catenin (Uniprot ID P35222)
Sequence (P35222 whole entry): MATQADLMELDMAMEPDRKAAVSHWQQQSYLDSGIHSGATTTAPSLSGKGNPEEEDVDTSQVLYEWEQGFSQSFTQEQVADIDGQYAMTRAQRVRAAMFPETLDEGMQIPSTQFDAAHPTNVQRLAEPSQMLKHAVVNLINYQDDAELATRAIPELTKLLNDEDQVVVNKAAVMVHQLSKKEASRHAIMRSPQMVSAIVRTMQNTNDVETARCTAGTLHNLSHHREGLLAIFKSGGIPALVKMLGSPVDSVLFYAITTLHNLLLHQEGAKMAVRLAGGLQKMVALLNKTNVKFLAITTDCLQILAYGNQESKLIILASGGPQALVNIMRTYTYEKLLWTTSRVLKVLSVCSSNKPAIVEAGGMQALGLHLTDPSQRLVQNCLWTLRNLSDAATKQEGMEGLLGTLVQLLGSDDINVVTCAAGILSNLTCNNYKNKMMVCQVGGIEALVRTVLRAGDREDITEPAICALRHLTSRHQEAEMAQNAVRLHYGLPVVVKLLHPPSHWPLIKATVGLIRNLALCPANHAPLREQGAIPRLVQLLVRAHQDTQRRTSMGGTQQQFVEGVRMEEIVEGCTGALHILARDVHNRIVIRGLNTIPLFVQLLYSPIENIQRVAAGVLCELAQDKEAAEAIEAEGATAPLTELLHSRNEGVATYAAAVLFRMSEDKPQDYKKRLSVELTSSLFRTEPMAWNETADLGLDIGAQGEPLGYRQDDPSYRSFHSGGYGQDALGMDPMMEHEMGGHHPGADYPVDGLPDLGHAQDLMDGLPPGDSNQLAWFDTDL
MEASUREMENT DESCRIPTION: Fluorescence polarization IC50 (beta-catenin / 5FAM-TCF4 10-53 competition)
Type: binding
COND: fluorescence polarization; read-out: beta-Catenin FP IC50
READOUT: IC50 (nM)
Your answer is read as nM, so omit the unit and give the number.

INSERT INTO results (compound, measured_on, readout, data_value) VALUES
  ('CC(=O)N1CCC[C@]12CC=CCCCC1(CCCC=CCCCOC(=O)N3CC[C@@](C(=O)N[C@@H](Cc4ccccc4)C(=O)N[C@@H](Cc4csc5ccccc45)C(=O)N[C@@H](CCO)C(N)=O)(C3)NC(=O)[C@H](CC(C)C)NC(=O)[C@H](Cc3ccccc3)NC(=O)[C@H](C)NC(=O)[C@H](CCCCNC(C)C)NC(=O)[C@H](CCC(N)=O)NC(=O)[C@H](CC(=O)O)NC1=O)NC(=O)[C@H](CC(C)(C)C)NC(=O)[C@H](CC(N)=O)NC2=O (stereo partly drawn)', 'full-length beta-Catenin (Uniprot ID P35222) (Homo sapiens, UniProt P35222)', 'IC50', 640);

(Q) Observed IC50 on full-length beta-Catenin (Uniprot ID P35222) (Homo sapiens, UniProt P35222) for CC(=O)N1CCC[C@]12CC=CCCCC1(CCCC=CCCCOC(=O)N3CC[C@@](C(=O)N[C@@H](Cc4ccsc4)C(=O)N[C@@H](Cc4csc5ccccc45)C(=O)N[C@@H](CCC(N)=O)C(N)=O)(C3)NC(=O)[C@H](CC(C)C)NC(=O)[C@H](Cc3ccccc3)NC(=O)[C@H](CCCN3CCN(C)CC3)NC(=O)[C@H](C)NC(=O)[C@H](CC(=O)O)NC(=O)[C@H](CC(=O)O)NC1=O)NC(=O)[C@H](CC(C)(C)C)NC(=O)[C@H](CC(=O)O)NC2=O (stereo partly drawn) , please.
(A) 38

(Q) Form: Entry = CC(=O)N1CCC[C@]12CC=CCCCC1(CCCC=CCCCCCC[C@@](C)(C(=O)N[C@@H](Cc3ccccc3)C(=O)N[C@@H](Cc3csc4ccccc34)C(=O)N[C@@H](CCC(N)=O)C(N)=O)NC(=O)[C@H](CC(C)C)NC(=O)[C@H](Cc3ccccc3)NC(=O)[C@H](C)NC(=O)[C@H](C)NC(=O)[C@H](CCC(=O)O)NC(=O)[C@H](CC(=O)O)NC1=O)NC(=O)[C@H](CCC(C)C)NC(=O)[C@H](CC(=O)O)NC2=O (stereo partly drawn) | System = full-length beta-Catenin (Uniprot ID P35222) (Homo sapiens, UniProt P35222) | IC50 = ____
(A) 42
